Experimental Target: T1, anti-CD28 Fab (SEQ ID NOs: 202, 203)
T1 construct: biotinylated and captured on neutravidin coated plates in the phage ELISA
T1 sequence (VH, as listed by the source, chain 1 of 2): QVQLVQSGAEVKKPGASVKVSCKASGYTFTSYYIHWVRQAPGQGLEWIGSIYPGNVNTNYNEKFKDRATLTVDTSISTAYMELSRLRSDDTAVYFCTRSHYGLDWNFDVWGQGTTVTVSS
T1 sequence (VL, as listed by the source, chain 2 of 2): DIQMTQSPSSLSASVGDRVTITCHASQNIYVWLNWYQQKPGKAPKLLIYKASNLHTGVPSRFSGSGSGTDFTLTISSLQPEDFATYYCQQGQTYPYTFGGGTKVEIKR
Method Notes: phage binding ELISA; biotinylated Fab on neutravidin plate;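 further: clonal phage supernatants added to Fab wells pretreated with CD28 antigen or with blocking buffer only, bound phage read out via HRP-linked anti-M13 antibody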
Reported Metric: Anti-CD28 Fab (SEQ ID NOs: 202, 203) signal
Answers are plain numbers.

Worked cases, answers included:
[
  {
    "Binder": "YCEGHSEMYMKKCL [Phage-425]",
    "Value": 1.72
  },
  {
    "Binder": "YCDGHSREYMVKCL [Phage-431]",
    "Value": 1.71
  },
  {
    "Binder": "YCEGHRSEYMAKCL [Phage-336]",
    "Value": 1.86
  },
  {
    "Binder": "YCEGHSSEYMEKCL [Phage-302]",
    "Value": 1.91
  },
  {
    "Binder": "YCAGHSMEYMAKCL [Phage-435]",
    "Value": 1.71
  }
]

Please give Anti-CD28 Fab (SEQ ID NOs: 202, 203) signal for each item listed below.
1. YCEGHLQTYMAKCL [Phage-414]
2. YCEGHRPEYMAKCL [Phage-348]
3. YCDGHSAEYITKCL [Phage-380]
4. YCEGHSWEYIGKCL [Phage-332]
5. YCHGHLQEYMAKCL [Phage-398]
6. YCDGHAEEYMSKCL [Phage-309]

Solution:
1: 1.73; 2: 1.83; 3: 1.77; 4: 1.87; 5: 1.76; 6: 1.9

Please give Anti-CD28 Fab (SEQ ID NOs: 202, 203) signal for each item listed below.
1. YCEGHVAEYMLKCL [Phage-323]
2. YCDGHSSEYIAKCL [Phage-383]

Solution:
1: 1.88; 2: 1.77

Please give Anti-CD28 Fab (SEQ ID NOs: 202, 203) signal for each item listed below.
1. YCEGHSYEYMWKCL [Phage-328]
2. YCEGHAQEYMSKCL [Phage-439]
3. YCVGHAPEFMAKCL [Phage-369]
4. YCAGHLPQYIAKCL [Phage-313]
5. YCAGHAPQYMEKCL [Phage-312]
6. YCDGHSWEYIQKCL [Phage-326]
7. YCDGHLAEYMPKCL [Phage-320]
8. YCDGHAPEYMKKCL [Phage-306]

Solution:
[1.88, 1.7, 1.8, 1.9, 1.9, 1.88, 1.89, 1.9]

Please give Anti-CD28 Fab (SEQ ID NOs: 202, 203) signal for each item listed below.
1. YCDGHSPEYMNKCL [Phage-399]
2. YCDGHASEYMAKCL [Phage-407]
3. YCDGHKAEYMEKCL [Phage-366]
4. YCDGHLEEYMVKCM [Phage-413]

Solution:
1: 1.75; 2: 1.75; 3: 1.81; 4: 1.73

Please give Anti-CD28 Fab (SEQ ID NOs: 202, 203) signal for each item listed below.
1. YCDGHHIEYLAKCL [Phage-402]
2. YCDGHAEKYMQKCL [Phage-408]
3. YCDGHLPLYMHKCL [Phage-357]
4. YCDGHAPVYMAKCL [Phage-400]
5. YCEGHLDEYMWKCL [Phage-381]
6. YCEGHSPEYMWKCL [Phage-321]

Solution:
1: 1.75; 2: 1.74; 3: 1.82; 4: 1.75; 5: 1.77; 6: 1.89
